molecular target: UniProtKB P47900; experiment: Binding Assay B: Scintillation Proximity Assay (SPA) for P2Y1 binding
READOUT_KIND: pKi
Give bare numbers, as −log10 of the molar value.

Please give pKi, item by item, for the list that follows.
1. CC(C)(C)CN1CCC2(CC1)CN(c1ccccc1Nc1nnc(-c3ccncc3)s1)c1c(O)ccc(Cl)c12
2. CC(C)(C)CN1CCC2(CC1)CN(c1ccccc1Nc1nnc(-c3cccc(F)c3)s1)c1c(O)ccc(C(F)(F)F)c12
3. COC(=O)c1nnc(Nc2ccccc2N2CC3(CCN(CC(C)(C)C)CC3)c3c(Cl)ccc(O)c32)s1
4. CCOC(=O)c1sc(Nc2ccccc2N2CC3(CCN(CC(C)(C)C)CC3)c3c(Cl)ccc(O)c32)nc1C(F)(F)F

OUT:
7.40
7.92
7.32
7.72

###

Please respond with reported pKi for every item in the list.
biological target: cloned human P2Y1 receptors (Homo sapiens (Human)); test: Binding Assay B: Scintillation Proximity Assay (SPA) for P2Y1 binding
Sequence (P47900 whole entry): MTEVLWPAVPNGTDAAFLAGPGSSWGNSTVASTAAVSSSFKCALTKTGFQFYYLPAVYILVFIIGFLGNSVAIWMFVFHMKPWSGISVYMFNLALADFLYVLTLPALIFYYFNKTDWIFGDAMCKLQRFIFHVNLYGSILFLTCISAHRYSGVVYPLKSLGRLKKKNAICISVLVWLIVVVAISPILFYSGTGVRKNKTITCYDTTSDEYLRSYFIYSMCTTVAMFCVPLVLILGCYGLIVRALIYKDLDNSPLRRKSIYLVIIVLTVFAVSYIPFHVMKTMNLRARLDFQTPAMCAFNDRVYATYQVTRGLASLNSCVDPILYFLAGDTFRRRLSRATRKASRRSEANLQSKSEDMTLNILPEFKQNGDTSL
Give bare numbers, as −log10 of the molar value.

Please give pKi, item by item, for the list that follows.
1. COC(=O)c1ccc(O)c2c1C1(CCN(CC(C)(C)C)CC1)CN2c1ccccc1Nc1nnc(-c2ccc(C(F)(F)F)cc2)s1
2. CC(C)(C)CN1CCC2(CC1)CN(c1ccccc1Nc1ccc(C(F)(F)F)cn1)c1c(O)ccc(Cl)c12
3. CC(C)(C)CN1CCC2(CC1)CN(c1ccccc1Nc1nnc(-c3ccccn3)s1)c1c(O)ccc(C(F)(F)F)c12
4. CC(C)(C)CN1CCC2(CC1)CN(c1ccccc1Nc1nnc(-c3ccc(OC(F)(F)F)cc3)s1)c1c(O)c(F)cc(Cl)c12
5. CC(C)(C)CN1CCC2(CC1)CN(c1ccccc1Nc1nnc(-c3cnc4ccccc4n3)s1)c1c(O)ccc(Cl)c12
6. CC(C)(C)CN1CCC2(CC1)CN(c1ccccc1Nc1ncc(-c3ccccc3)s1)c1c(O)ccc(Cl)c12
7. CC(C)(C)CN1CCC2(CC1)CN(c1ccccc1Nc1nc(C(C)(C)C)c(C#N)s1)c1c(O)ccc(Cl)c12

OUT:
8.10
7.66
7.96
7.16
7.18
7.80
8.05
